Tested on: HTC-C3 (Thyroid Gland Carcinoma)
Experiment: Bliss excess, mean over the matrix (fraction); higher = more synergy;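 further: after 72 h of two-drug dosing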
Reported Bliss excess values follow for various molecules
I'd appreciate a reply containing only the number, no unit.

Worked cases, answers included:
| molecule | target.or.system | value.type | readout.number |
| --- | --- | --- | --- |
| Cc1cc2ncnn2cc1Nc1ncc2c(n1)n(C1CCOCC1)c(=O)n2C [AZD7648] + CCN(CCO)CCCOc1ccc2c(Nc3cc(CC(=O)Nc4cccc(F)c4)[nH]n3)ncnc2c1 [AZD2811] (first compound max 10 µM, 7x7, partner max 1 µM) | HTC-C3 (Thyroid Gland Carcinoma) | Bliss excess | 0.0226 |
| CC1(C)CCC(CN2CCN(c3ccc(C(=O)NS(=O)(=O)c4ccc(NCC5CCOCC5)c([N+](=O)[O-])c4)c(Oc4cnc5[nH]ccc5c4)c3)CC2)=C(c2ccc(Cl)cc2)C1 [Venetoclax] + CN(C)CCCOc1ccc(-c2ccc3ncc4c(c3c2)n(C2CCOCC2)c(=O)n4C)cn1 [AZD0156] (first compound max 1 µM, 7x7, partner max 1 µM) | HTC-C3 (Thyroid Gland Carcinoma) | Bliss excess | -0.0378 |

Proceeding to the next molecule to report its Bliss excess.
Give the reported Bliss excess for CC1(C)CCC(CN2CCN(c3ccc(C(=O)NS(=O)(=O)c4ccc(NCC5CCOCC5)c([N+](=O)[O-])c4)c(Oc4cnc5[nH]ccc5c4)c3)CC2)=C(c2ccc(Cl)cc2)C1 [Venetoclax] + Cn1cnc2c(F)c(Nc3ccc(Br)cc3Cl)c(C(=O)NOCCO)cc21 [Selumetinib] (first compound max 1 µM, 7x7, partner max 3 µM) (system: HTC-C3 (Thyroid Gland Carcinoma)).
-0.049

---

System: LAMA-84 (Chronic Myelogenous Leukemia)
Test: Bliss excess, mean over the matrix (fraction); higher = more synergy
Note to self: values exactly at 0.006 are MET. So Bliss excess at or above 0.006 is MET, below is NOT MET.

| compound | group.label |
| --- | --- |
| CC1(C)CCC(CN2CCN(c3ccc(C(=O)NS(=O)(=O)c4ccc(NCC5CCOCC5)c([N+](=O)[O-])c4)c(Oc4cnc5[nH]ccc5c4)c3)CC2)=C(c2ccc(Cl)cc2)C1 [Venetoclax] + CS(=O)(=O)CCNCc1ccc(-c2ccc3ncnc(Nc4ccc(OCc5cccc(F)c5)c(Cl)c4)c3c2)o1 [Lapatinib] (first compound max 1 µM, 7x7, partner max 10 µM) | NOT MET |
| CN(CCO)CC[C@H](CSc1ccccc1)Nc1ccc(S(=O)(=O)NC(=O)c2ccc(N3CCC([C@@H](O)c4ccccc4-c4ccc(Cl)cc4)CC3)cc2)cc1S(=O)(=O)C(F)(F)F [AZD4320] + CCN(CCO)CCCOc1ccc2c(Nc3cc(CC(=O)Nc4cccc(F)c4)[nH]n3)ncnc2c1 [AZD2811] (first compound max 1 µM, 7x7, partner max 1 µM) | MET |
| Cc1c2c(nn1C)CSCc1cc(n(C)n1)CSc1cc(c3ccccc3c1)OCCCc1c(C(=O)O)n(C)c3c-2c(Cl)ccc13 [AZD5991] + Cc1cc2ncnn2cc1Nc1ncc2c(n1)n(C1CCOCC1)c(=O)n2C [AZD7648] (first compound max 1 µM, 7x7, partner max 10 µM) | NOT MET |
| CC(=O)c1c(C)c2cnc(Nc3ccc(N4CCNCC4)cn3)nc2n(C2CCCC2)c1=O [Palbociclib] + Cc1c2c(nn1C)CSCc1cc(n(C)n1)CSc1cc(c3ccccc3c1)OCCCc1c(C(=O)O)n(C)c3c-2c(Cl)ccc13 [AZD5991] (first compound max 10 µM, 7x7, partner max 1 µM) | NOT MET |
| Cn1cnc2c(F)c(Nc3ccc(Br)cc3Cl)c(C(=O)NOCCO)cc21 [Selumetinib] + CCN(CCO)CCCOc1ccc2c(Nc3cc(CC(=O)Nc4cccc(F)c4)[nH]n3)ncnc2c1 [AZD2811] (first compound max 10 µM, 7x7, partner max 1 µM) | MET |

API: above_or_equal(metric=Bliss excess, cutoff=0.006) for item COc1cccc(OCCCN)c1-c1cc(Nc2cnc(C#N)cn2)n[nH]1 [Prexasertib] + O=C(c1cc(Cc2n[nH]c(=O)c3ccccc23)ccc1F)N1CCN(C(=O)C2CC2)CC1 [Olaparib] (first compound max 1 µM, 7x7, partner max 10 µM)
NOT MET
